Origin of values: patent US9505761B2

target-system: TEM-1 (Escherichia coli)
Sequence (P62593 24-286 limits assumed): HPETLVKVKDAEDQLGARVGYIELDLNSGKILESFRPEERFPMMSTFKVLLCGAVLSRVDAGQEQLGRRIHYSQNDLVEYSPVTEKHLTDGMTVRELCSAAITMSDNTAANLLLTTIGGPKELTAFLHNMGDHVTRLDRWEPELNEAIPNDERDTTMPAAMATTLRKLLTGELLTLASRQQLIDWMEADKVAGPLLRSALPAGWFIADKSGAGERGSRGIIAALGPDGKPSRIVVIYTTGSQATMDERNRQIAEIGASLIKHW
procedure-details: β-lactamase inhibitory activity, spectrophotometric, nitrocefin
settings: nitrocefin substrate, 490 nM as printed
metric: pIC50
Quick note: pIC50 means taking -log10 of the concentration in moles per liter.

Exercise: Give reported pIC50 value for O=C(NO[C@H]1CCNC1)[C@@H]1CC[C@@H]2CN1C(=O)N2OS(=O)(=O)O [Ex. 2]
Solution: 6.87

###

target-system: KPC-2 (Klebsiella pneumoniae, UniProt Q9F663)
procedure-details: β-lactamase inhibitory activity, spectrophotometric, nitrocefin
metric: pIC50
Quick note: pIC50 means taking -log10 of the concentration in moles per liter.

Exercise: Give pIC50; test system KPC-2 (Klebsiella pneumoniae, UniProt Q9F663); compound `O=C(NO[C@H]1CCNC1)[C@@H]1CC[C@@H]2CN1C(=O)N2OS(=O)(=O)O`
Solution: 7.14
